tested on: catechol-O-methyl transferase; assay: Michaelis-Menten constant was measured for O-methylation (probably meta) by catechol-O-methyl transferase; format: ADME
Measured Km, listed per entry.
Express your answer in µM, writing the number without its unit.

CCCN1CCC[C@H](c2ccc(O)c(O)c2)C1; 121

Alright, here's another compound for you.
Q. # query: Km | item `CCCN1CCC[C@@H](c2ccc(O)c(O)c2)C1` | system: catechol-O-methyl transferase
A. 77

###

molecular target: D(2) dopamine receptor (Rattus norvegicus, UniProt P61169); assay: In vitro affinity against Dopamine receptor D2 using [3H]DP-5,6-ADTN radioligand in rat striatal homogenate.
Sequence (P61169 whole entry): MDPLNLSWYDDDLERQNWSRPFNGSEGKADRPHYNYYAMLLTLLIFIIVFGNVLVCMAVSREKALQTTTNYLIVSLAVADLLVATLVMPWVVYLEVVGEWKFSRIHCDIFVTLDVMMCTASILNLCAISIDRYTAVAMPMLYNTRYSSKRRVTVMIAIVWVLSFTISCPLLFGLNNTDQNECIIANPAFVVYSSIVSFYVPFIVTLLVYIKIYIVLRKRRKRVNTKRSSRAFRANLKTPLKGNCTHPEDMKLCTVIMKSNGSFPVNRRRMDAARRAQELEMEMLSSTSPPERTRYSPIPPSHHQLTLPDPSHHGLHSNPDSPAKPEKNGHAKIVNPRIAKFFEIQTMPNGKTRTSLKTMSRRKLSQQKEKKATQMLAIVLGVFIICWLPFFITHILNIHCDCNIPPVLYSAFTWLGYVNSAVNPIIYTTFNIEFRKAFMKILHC
Measured Ki, listed per entry.
Please format your answer as a value with the unit trailing.

CCCN1CCC[C@@H](c2ccc(O)c(O)c2)C1; 12 nM

Alright, here's another compound for you.
Q. Item `CCCN1CCC[C@H](c2ccc(O)c(O)c2)C1` has what recorded Ki?
A. 11 nM
